assayed-system: human sEH (Homo sapiens)
Sequence (P34913 whole entry): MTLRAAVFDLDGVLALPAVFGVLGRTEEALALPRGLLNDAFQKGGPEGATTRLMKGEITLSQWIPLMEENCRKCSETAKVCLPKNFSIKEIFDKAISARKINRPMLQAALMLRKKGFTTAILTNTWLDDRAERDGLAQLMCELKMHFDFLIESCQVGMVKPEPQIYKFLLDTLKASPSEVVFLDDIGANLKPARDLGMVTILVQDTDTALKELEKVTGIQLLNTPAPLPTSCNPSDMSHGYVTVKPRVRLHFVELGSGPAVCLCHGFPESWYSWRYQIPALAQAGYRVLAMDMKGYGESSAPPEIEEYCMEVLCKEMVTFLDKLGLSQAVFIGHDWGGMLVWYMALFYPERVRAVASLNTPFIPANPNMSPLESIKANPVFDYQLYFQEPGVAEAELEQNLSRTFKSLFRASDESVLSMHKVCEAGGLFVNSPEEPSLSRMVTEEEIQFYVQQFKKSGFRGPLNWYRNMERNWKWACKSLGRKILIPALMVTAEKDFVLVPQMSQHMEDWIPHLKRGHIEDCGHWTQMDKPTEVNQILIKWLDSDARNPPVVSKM
test-protocol: recombinant human sEH inhibition, fluorescent-based substrate
pIC50: −log10 of the molar value.
outcome-measure: pIC50

Bench note: what pIC50 did O=C(Nc1cccnc1)N1CCC(Cc2cccc(Oc3ccc(C(F)(F)F)cn3)c2)CC1 show? < 5.00

* * *

assayed-system: FAAH (Homo sapiens)
Sequence (O00519 1-579): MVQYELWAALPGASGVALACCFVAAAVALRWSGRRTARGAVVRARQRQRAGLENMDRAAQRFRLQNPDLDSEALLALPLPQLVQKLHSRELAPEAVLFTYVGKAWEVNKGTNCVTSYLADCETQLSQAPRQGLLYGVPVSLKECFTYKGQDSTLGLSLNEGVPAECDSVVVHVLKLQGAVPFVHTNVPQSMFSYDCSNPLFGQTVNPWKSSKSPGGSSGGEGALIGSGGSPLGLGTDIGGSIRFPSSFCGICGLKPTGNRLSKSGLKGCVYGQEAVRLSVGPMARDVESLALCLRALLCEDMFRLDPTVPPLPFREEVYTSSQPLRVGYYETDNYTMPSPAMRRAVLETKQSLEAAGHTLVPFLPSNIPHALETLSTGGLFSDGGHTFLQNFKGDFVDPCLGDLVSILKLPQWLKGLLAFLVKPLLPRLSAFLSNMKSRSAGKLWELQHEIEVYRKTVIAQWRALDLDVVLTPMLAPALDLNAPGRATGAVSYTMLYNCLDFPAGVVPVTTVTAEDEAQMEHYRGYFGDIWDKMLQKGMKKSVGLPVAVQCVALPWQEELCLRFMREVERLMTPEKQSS
outcome-measure: pIC50
Just the number, please; pIC50 means minus log10 of the concentration in mol/L.

Bench note: what pIC50 did O=C(Nc1cccnc1)N1CCC(Cc2cccc(Oc3ccc(C(F)(F)F)cn3)c2)CC1 [PF-3845] show? 9.22
